Assay: Inhibition of human TERT expression in H1299 cells at 1 uM after 24 hrs by secreted alkaline phosphatase reporter gene assay relative to control; values are per cent of control
Details: NCI-H1299
quantity: level, % of control (%)
Please give a number only; it is taken to be in %.

Q. Could you share which level, % of control value was measured for COC(=O)[C@H](C)NCC(=O)Nc1cccc2c1C(=O)c1c(NC(=O)CN[C@@H](C)C(=O)OC)cccc1C2=O ?
A. 99

Q. Could you share which level, % of control value was measured for CCCN(C)CC(=O)Nc1cccc2c1C(=O)c1c(NC(=O)CN(C)CCC)cccc1C2=O ?
A. 85

Q. Could you share which level, % of control value was measured for CN(C)CCCNCCC(=O)Nc1cccc2c1C(=O)c1c(NC(=O)CCNCCCN(C)C)cccc1C2=O ?
A. 95

Q. Could you share which level, % of control value was measured for COC(=O)[C@H](COC(C)(C)C)NCC(=O)Nc1cccc2c1C(=O)c1c(NC(=O)CN[C@@H](COC(C)(C)C)C(=O)OC)cccc1C2=O ?
A. 98

***
Q. Could you share which level, % of control value was measured for CCCN(CCC)CCC(=O)Nc1cccc2c1C(=O)c1c(NC(=O)CCN(CCC)CCC)cccc1C2=O ?
A. 100

Q. Could you share which level, % of control value was measured for CCN(CC)CC(=O)Nc1cccc2c1C(=O)c1c(NC(=O)CN(CC)CC)cccc1C2=O ?
A. 86

Q. Could you share which level, % of control value was measured for CCNCC(=O)Nc1cccc2c1C(=O)c1c(NC(=O)CNCC)cccc1C2=O ?
A. 103

Q. Could you share which level, % of control value was measured for O=C(CNCc1cccc(C(F)(F)F)c1)Nc1cccc2c1C(=O)c1c(NC(=O)CNCc3cccc(C(F)(F)F)c3)cccc1C2=O ?
A. 75

====

Readings of growth at 10 µM for the listed compounds
Experiment: Cytotoxicity against human H1299 cells assessed as cell growth at 10 uM after 48 hrs by MTT assay
Format: functional
Conditions: NCI-H1299, 48 h, read-out: Activity

Some compounds with known growth at 10 µM results, for comparison:
Q. Could you share which growth at 10 µM value was measured for O=C(CCNCc1cc(F)cc(F)c1)Nc1cccc2c1C(=O)c1c(NC(=O)CCNCc3cc(F)cc(F)c3)cccc1C2=O ?
A. 87%

Q. Could you share which growth at 10 µM value was measured for CN(C)CCCCNCCC(=O)Nc1cccc2c1C(=O)c1c(NC(=O)CCNCCCCN(C)C)cccc1C2=O ?
A. 74%

Q. Could you share which growth at 10 µM value was measured for COC(=O)CN(C)CC(=O)Nc1cccc2c1C(=O)c1c(NC(=O)CN(C)CC(=O)OC)cccc1C2=O ?
A. 88%

Q. Could you share which growth at 10 µM value was measured for CNCCC(=O)Nc1cccc2c1C(=O)c1c(NC(=O)CCNC)cccc1C2=O ?
A. 107%

Q. Could you share which growth at 10 µM value was measured for CC(C)(C)OC(=O)NCCNCCC(=O)Nc1cccc2c1C(=O)c1c(NC(=O)CCNCCNC(=O)OC(C)(C)C)cccc1C2=O ?
A. 78%

***
Q. Could you share which growth at 10 µM value was measured for CC(C)NCCC(=O)Nc1cccc2c1C(=O)c1c(NC(=O)CCNC(C)C)cccc1C2=O ?
A. 29%

Q. Could you share which growth at 10 µM value was measured for O=C(CNCc1cccc(C(F)(F)F)c1)Nc1cccc2c1C(=O)c1c(NC(=O)CNCc3cccc(C(F)(F)F)c3)cccc1C2=O ?
A. 93%

Q. Could you share which growth at 10 µM value was measured for CCCN(CCC)CC(=O)Nc1cccc2c1C(=O)c1c(NC(=O)CN(CCC)CCC)cccc1C2=O ?
A. 76%
